Measured values drawn from patent US7700786B2 for this set.

Exercise: state measured Herbicidal activity Ec for each of the molecules provided.
Test system: Echinochloa crus-galli
Experiment: Herbicidal efficacy test by soil treatment before germination under upland field condition
Type: in vivo
Conditions: dose 1 kg/ha; 21st day after treatment; ratings of 1 to 5
Number, no unit, nothing else.

**Query** Quote Echinochloa crus-galli Herbicidal activity Ec for entry CCNC(=O)n1nc(Oc2c(Cl)cc(C(F)(F)F)cc2Cl)c(Cl)c1C [Compound 3-253] .
**Result** 4

**Query** Quote Echinochloa crus-galli Herbicidal activity Ec for entry CCNC(=O)n1nc(Oc2c(Cl)cc(C(F)(F)F)cc2Cl)cc1C [Compound 3-44] .
**Result** 5

**Query** Quote Echinochloa crus-galli Herbicidal activity Ec for entry Cc1cc(Oc2c(Cl)cc(C(F)(F)F)cc2Cl)nn1C(=O)NCC1CCCO1 (stereo not drawn) [Compound 3-183] .
**Result** 3

**Query** Quote Echinochloa crus-galli Herbicidal activity Ec for entry CNC(=O)n1nc(Oc2c(Cl)cc(C(F)(F)F)cc2Cl)cc1C [Compound 3-14] .
**Result** 4.9

**Query** Quote Echinochloa crus-galli Herbicidal activity Ec for entry CCNC(=S)n1nc(Oc2c(Cl)cc(C(F)(F)F)cc2Cl)cc1C [Compound 3-45] .
**Result** 5

**Query** Quote Echinochloa crus-galli Herbicidal activity Ec for entry Cc1cc(Oc2c(Cl)cc(C(F)(F)F)cc2Cl)nn1C(N)=O [Compound 3-3] .
**Result** 3.5

**Query** Quote Echinochloa crus-galli Herbicidal activity Ec for entry CNC(=O)n1nc(Oc2c(Cl)cc(C(F)(F)F)cc2Cl)c(Cl)c1C [Compound 3-249] .
**Result** 4.5

**Query** Quote Echinochloa crus-galli Herbicidal activity Ec for entry CCCNC(=O)n1nc(Oc2c(Cl)cc(C(F)(F)F)cc2Cl)cc1C [Compound 3-74] .
**Result** 4.9

**Query** Quote Echinochloa crus-galli Herbicidal activity Ec for entry CCNC(=O)n1nc(Oc2c(Cl)cc(C(F)(F)F)cc2Cl)cc1CC [Compound 3-330] .
**Result** 3.5

###

Exercise: state measured Injury Zm for each of the molecules provided.
Tested on: sweet corn (Zea mays)
Test: Injury to corn, soil treatment before germination under upland field condition
Format: in vivo
Conditions: dose 1 kg/ha; 21st day after treatment; ratings of 1 to 5
Number, no unit, nothing else.

**Query** Could you please provide reported Injury Zm for Cc1cc(Oc2c(Cl)cc(C(F)(F)F)cc2Cl)nn1C(=O)NCC1CCCO1 (stereo not drawn) ? Thanks!
**Result** 1

**Query** Could you please provide reported Injury Zm for `Cc1cc(Oc2c(Cl)cc(C(F)(F)F)cc2Cl)nn1C(N)=O` ? Thanks!
**Result** 1.5

**Query** Could you please provide reported Injury Zm for `CCNC(=S)n1nc(Oc2c(Cl)cc(C(F)(F)F)cc2Cl)cc1C` ? Thanks!
**Result** 2

###

System: Rice (oryza sativa) seedlings (cultiver Koshihikari)
Conditions: in vivo
parameterMeasured: Injury Os
Number, no unit, nothing else.

**Query** Could you please provide reported Injury Os for Cc1cc(Oc2c(Cl)cc(C(F)(F)F)cc2Cl)nn1C(=O)NCCBr [Compound 3-146] ? Thanks!
**Result** 1

**Query** Could you please provide reported Injury Os for Cc1cc(Oc2c(Cl)cc(C(F)(F)F)cc2Cl)nn1C(=O)NCC1CCCO1 (centres unmarked) [Compound 3-183] ? Thanks!
**Result** 2

**Query** Could you please provide reported Injury Os for Cc1cc(Oc2c(Cl)cc(C(F)(F)F)cc2Cl)nn1C(N)=O [Compound 3-3] ? Thanks!
**Result** 1.5

**Query** Could you please provide reported Injury Os for COCNC(=S)n1nc(Oc2c(Cl)cc(C(F)(F)F)cc2Cl)cc1C [Compound 3-169] ? Thanks!
**Result** 1

**Query** Could you please provide reported Injury Os for CCCNC(=O)n1nc(Oc2c(Cl)cc(C(F)(F)F)cc2Cl)cc1C [Compound 3-74] ? Thanks!
**Result** 1.8

###

System: Chenopodium album
Assay: Herbicidal efficacy test by foliar treatment after germination under upland field condition; note: key: 1 shows no influence; 5 shows complete die
Type: in vivo
Settings: dose 1 kg/ha, rated 1 to 5 on the 14th day after treatment
From the text: A vat having an area of 5×10 cm^2 and a depth of 5 cm was filled with upland field soil, and seeds of Chenopodium album, Echinochloa crus-galli, Amaranthus viridis and Abutilon theophrasti were sown thereon and covered with soil by a depth of 0.5 cm. Water was sprayed as required to grow them for 14 days.
Exercise: state measured Herbicidal activity Ca for each of the compounds provided.
Number, no unit, nothing else.

**Query** Could you please provide reported Herbicidal activity Ca for `CCNC(=S)n1nc(Oc2c(Cl)cc(C(F)(F)F)cc2Cl)cc1C` ? Thanks!
**Result** 5

**Query** Could you please provide reported Herbicidal activity Ca for `CCNC(=O)n1nc(Oc2c(Cl)cc(C(F)(F)F)cc2Cl)cc1C` ? Thanks!
**Result** 5

**Query** Could you please provide reported Herbicidal activity Ca for Cc1cc(Oc2c(Cl)cc(C(F)(F)F)cc2Cl)nn1C(=O)NCC1CCCO1 (centres unmarked) ? Thanks!
**Result** 5

**Query** Could you please provide reported Herbicidal activity Ca for `Cc1cc(Oc2c(Cl)cc(C(F)(F)F)cc2Cl)nn1C(N)=O` ? Thanks!
**Result** 5

**Query** Could you please provide reported Herbicidal activity Ca for `CNC(=S)n1nc(Oc2c(Cl)cc(C(F)(F)F)cc2Cl)cc1C` ? Thanks!
**Result** 5

**Query** Could you please provide reported Herbicidal activity Ca for `CCNC(=O)n1nc(Oc2c(Cl)cc(C(F)(F)F)cc2Cl)cc1CC` ? Thanks!
**Result** 5

**Query** Could you please provide reported Herbicidal activity Ca for `CCCNC(=O)n1nc(Oc2c(Cl)cc(C(F)(F)F)cc2Cl)cc1C` ? Thanks!
**Result** 5

**Query** Could you please provide reported Herbicidal activity Ca for CCC(C)NC(=O)n1nc(Oc2ncc(C(F)(F)F)cc2Cl)cc1C (centres unmarked) ? Thanks!
**Result** 5

###

parameterMeasured: melting point

**Query** Could you please provide reported melting point for `Cc1cc(Oc2ccc(C#N)cc2C(F)(F)F)n[nH]1` ? Thanks!
**Result** 123 to 125 °C

**Query** Could you please provide reported melting point for `Cc1cc(Oc2ccc([N+](=O)[O-])c(C(F)(F)F)c2)n[nH]1` ? Thanks!
**Result** 96 to 98 °C

**Query** Could you please provide reported melting point for `CNC(=S)n1nc(Oc2ncc(C(F)(F)F)cc2Cl)cc1C` ? Thanks!
**Result** 63 to 65 °C

**Query** Could you please provide reported melting point for `CCc1c(Oc2ccc([N+](=O)[O-])cc2C(F)(F)F)nn(C(=O)NC)c1C` ? Thanks!
**Result** 96 to 97 °C

**Query** Could you please provide reported melting point for `Cc1cc(Oc2c(Cl)cc(C(F)(F)F)cc2Cl)n[nH]1` ? Thanks!
**Result** 153 to 155 °C

**Query** Could you please provide reported melting point for `CCNC(=O)n1nc(Oc2c(Cl)cc(C(F)(F)F)cc2Cl)cc1C(=O)OC` ? Thanks!
**Result** 88 to 90 °C

**Query** Could you please provide reported melting point for `CNC(=O)n1nc(Oc2ccc(C(F)(F)F)cc2[N+](=O)[O-])c(C)c1C` ? Thanks!
**Result** 117 to 119 °C

**Query** Could you please provide reported melting point for `CCNC(=O)n1nc(Oc2c(F)cc(C(F)(F)F)cc2F)cc1C` ? Thanks!
**Result** 102 to 104 °C

**Query** Could you please provide reported melting point for `Cc1c(Cl)c(Oc2c(Cl)cc(C(F)(F)F)cc2Cl)nn1C(=O)NCCCl` ? Thanks!
**Result** 141 to 143 °C

**Query** Could you please provide reported melting point for `CCNC(=O)n1nc(Oc2ccc([N+](=O)[O-])cc2)cc1C` ? Thanks!
**Result** 105 to 107 °C

**Query** Could you please provide reported melting point for `COCNC(=S)n1nc(Oc2c(Cl)cc(C(F)(F)F)cc2Cl)cc1C` ? Thanks!
**Result** 95 to 96 °C

**Query** Could you please provide reported melting point for `Cc1cc(Oc2ccc([N+](=O)[O-])c(Cl)c2)n[nH]1` ? Thanks!
**Result** 91 to 93 °C

**Query** Could you please provide reported melting point for `CCNC(=O)n1nc(Oc2ccc([N+](=O)[O-])c(OCC)c2)cc1C` ? Thanks!
**Result** 110 to 112 °C

**Query** Could you please provide reported melting point for `Cc1cc(Oc2ccc([N+](=O)[O-])c(F)c2)n[nH]1` ? Thanks!
**Result** 80 to 83 °C

**Query** Could you please provide reported melting point for `Cc1cc(Oc2c([N+](=O)[O-])cc([N+](=O)[O-])cc2C(F)(F)F)n[nH]1` ? Thanks!
**Result** 145 to 147 °C

**Query** Could you please provide reported melting point for `CCc1c(Oc2ncc(C(F)(F)F)cc2Cl)nn(C(=O)NC)c1C` ? Thanks!
**Result** 84 to 86 °C
